Target: Recombinant cathepsin K (human) (Homo sapiens, UniProt P43235)
Sequence (P43235 115-329): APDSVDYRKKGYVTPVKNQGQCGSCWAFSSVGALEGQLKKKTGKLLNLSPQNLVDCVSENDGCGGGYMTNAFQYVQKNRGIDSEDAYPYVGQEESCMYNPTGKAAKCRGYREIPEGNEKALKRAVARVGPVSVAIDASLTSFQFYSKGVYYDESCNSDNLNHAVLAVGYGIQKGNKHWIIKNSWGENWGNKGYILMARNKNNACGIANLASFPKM
Details: read-out: IC50 against purified human cathepsin K; parent inhibitors; identical within error under light vs. dark; cathepsin K 2 nM, Z-Gly-Pro-Arg-AMC 100 μM
Measurement Label: pIC50
Give only the number. pIC50 is defined as minus log10 of concentration in molar units.

{"Compound": "CC(C)CC(NC(=O)OCc1ccccc1)C(=O)NC(C#N)COCc1ccccc1 (stereo not drawn) [Compound 3, Cbz-Leu-Ser(OBn)-CN]", "pIC50": 7.55}

# context switch: different compound, same pIC50
Lab note: measured pIC50 of CC(C)CC(NC(=O)OCc1ccccc1)C(=O)NCC#N (stereo not drawn) [Compound 2, Cbz-Leu-NHCH2CN, reference compound] was 7.44
